Measured IC50, listed per entry for reference.
test-target: Cytochrome P450 11B2, mitochondrial (Rattus norvegicus)
Sequence (P30099 whole entry): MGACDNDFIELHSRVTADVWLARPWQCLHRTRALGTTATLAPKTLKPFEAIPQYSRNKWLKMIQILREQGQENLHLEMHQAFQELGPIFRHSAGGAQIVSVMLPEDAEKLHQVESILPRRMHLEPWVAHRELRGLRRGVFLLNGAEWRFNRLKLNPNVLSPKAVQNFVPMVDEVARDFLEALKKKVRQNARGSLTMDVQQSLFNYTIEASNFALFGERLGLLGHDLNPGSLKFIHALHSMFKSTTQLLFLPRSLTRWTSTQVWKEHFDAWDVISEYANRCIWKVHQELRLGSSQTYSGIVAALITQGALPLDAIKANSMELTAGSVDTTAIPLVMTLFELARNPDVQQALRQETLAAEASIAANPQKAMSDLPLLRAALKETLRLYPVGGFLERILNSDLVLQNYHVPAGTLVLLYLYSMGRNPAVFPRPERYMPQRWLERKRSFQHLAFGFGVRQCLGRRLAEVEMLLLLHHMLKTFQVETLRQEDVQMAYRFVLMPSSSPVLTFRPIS
assay-text: Inhibition of recombinant rat CYP11B2 using 11-deoxycorticosterone as substrate after 2 hrs by scintillation proximity assay
property-label: IC50 (µM)

INSERT INTO assay_data (smiles_record, property_label, unit, assay_result) VALUES
  ('Cn1c(-c2cccnc2)c(C#N)c2ccc(Cl)cc21', 'IC50', 'µM', 8),
  ('CN(C)S(=O)(=O)Oc1cncc(-c2c(C#N)c3ccccc3n2C)c1', 'IC50', 'µM', 2),
  ('CCS(=O)(=O)Nc1cncc(-c2c(C#N)c3ccc(Cl)cc3n2C)c1', 'IC50', 'µM', 53.1),
  ('Cn1c(-c2cccnc2)c(C#N)c2ccccc21', 'IC50', 'µM', 10.9),
  ('Cc1c(-c2cccnc2)[nH]c2ccccc12', 'IC50', 'µM', 3.9),
  ('CCS(=O)(=O)NCc1cncc(-c2c(C#N)c3ccc(Cl)cc3n2C)c1', 'IC50', 'µM', 27.4);
